Assay: S. cerevisiae RM11-1a growth modifiers, primary screen, strain RM11-1a, OD600, basal, 24 h (AID 1177);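 also: cultures grown under basal conditions with no added stressor; test concentration not given here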
Conditions: OD600, 24 h, higher = more signal, called active from +8 up or from −8 down
Recorded measurements of z-score, one per entry
Experimental readout: z-score

[
  {
    "Compound": "CCCCCN1CC=CC23O[C@@H]4/C=C\\CCCOC(=O)C4[C@H]2C(=O)N(CCCO)[C@@H]3C1=O (stereo partly specified)",
    "Experimental readout": "z-score",
    "Measured": -1.32
  },
  {
    "Compound": "COC(=O)[C@@]1(Cc2ccc(F)cc2)[C@H]2c3cc(C(=O)N(C)C)n(CC4CC4)c3C[C@H]2CN1C(=O)c1ccccc1",
    "Experimental readout": "z-score",
    "Measured": 0.479
  },
  {
    "Compound": "COc1cc2c(cc1OC)CN(C(=O)[C@H]1[C@@H]3C(=O)O[C@@H](c4ccccc4)[C@@H](c4ccccc4)N3[C@@H](c3ccc(O)cc3)[C@]13C(=O)Nc1ccc(C#CC4=CCCCC4)cc13)CC2",
    "Experimental readout": "z-score",
    "Measured": 0.449
  },
  {
    "Compound": "C=C(COC)/C(=C/C[C@H](OC(=O)c1ccncc1)c1ccc(OCCO)cc1)c1cnc2ccccc2c1",
    "Experimental readout": "z-score",
    "Measured": -0.401
  },
  {
    "Compound": "C=CCNC(=O)[C@@H]1[C@H]2C(=O)O[C@H](c3ccccc3)[C@H](c3ccccc3)N2[C@H](c2ccc(OCCO)cc2)[C@@]12C(=O)Nc1ccc(C#Cc3ccc(OC)cc3)cc12",
    "Experimental readout": "z-score",
    "Measured": 2.6
  },
  {
    "Compound": "COC(=O)[C@@]1(Cc2ccc(OC)cc2)[C@H]2c3cc(C(=O)N4CCCC4)n(Cc4ccccc4)c3C[C@H]2CN1C(=O)c1ccccc1",
    "Experimental readout": "z-score",
    "Measured": 0.479
  }
]
